system: SN12C; test: NCI tumour cell line growth inhibition, 48 h
Activity calls are given as the source filed them. No stated cut-off is given here; in the data, active = GI50 up to about 1.1 µM and inactive = higher.
measuredProperty: GI50

// worked examples, GI50 included
{"compound": "CC(=O)OC[C@]1(O)CC[C@@]23CC1C[C@@H]2CCC1C(C)(C)CCC[C@@]13C (stereo partly specified)", "result": "12.2 µM (inactive)"}
{"compound": "C=C(CO)CC(O)c1cc(OC)ccc1OC (stereo unspecified)", "result": "> 100 µM (inactive)"}
{"compound": "COC(=O)C(C(=O)C(=O)Nc1ccc([N+](=O)[O-])cc1)c1nc2ccc([N+](=O)[O-])cc2nc1O (stereo unspecified)", "result": "> 100 µM (inactive)"}
{"compound": "O=C(O)Cc1ccc2nc(COC(=O)c3ccccc3)sc2c1", "result": "> 100 µM (inactive)"}
{"compound": "Cc1cc(C(C)(C)C)cc(Cc2cc(C(C)(C)C)cc(Cc3cc(C(C)(C)C)cc(C)c3O)c2O)c1O", "result": "7.28 µM (inactive)"}
{"compound": "COC(=O)C1=C(C(=O)OC)C(Cc2ccccc2)(OO)OC1=O (stereo unspecified)", "result": "4.22 µM (inactive)"}

Q: For the compound CCNC(=O)Cc1nc2c(O)ncnc2n1C1OC(CO)C(O)C1O (stereo unspecified) , what GI50 is on record?
Result: > 100 µM (inactive)

Q: Now consider "Brc1ccc2c(c1)-c1nc3c(cc1CC2)CCc1ccc(Br)cc1-3" and answer again.
Result: > 100 µM (inactive)

Q: Also "Cn1c(=O)c2c(nc(N/N=C3/SCC(=O)N3Cc3ccccc3)n2C)n(C)c1=O" ?
Result: > 100 µM (inactive)

Q: Subsequent entry: "Cc1oc(N)c(S(=O)(=O)c2cc3ccccc3[n+]([O-])c2N)c1C"
Result: > 100 µM (inactive)

Q: Quick one: CC1Cc2c(N)nc(N3CCOCC3)nc2NC1=O (stereo unspecified)
Result: > 100 µM (inactive)

---

Catalogue of compounds with associated GI50
test system: OVCAR-4; test: NCI tumour cell line growth inhibition, 48 h
Active and inactive are the calls of the source. Cut-off read from the data, not from the text of the source: active = GI50 up to about 1.1 µM and inactive = higher.

Completed entries (count: 3):
{"compound": "C#CCSC(C=C=C)P(=O)(OC(C)C)OC(C)C (stereo unspecified)", "GI50": "> 100 µM (inactive)"}
{"compound": "O=NN(CCF)C(=O)NC1CCSCC1", "GI50": "> 100 µM (inactive)"}
{"compound": "CN(C)NC1=NS(=O)(=O)c2cc3c(cc2S1)N(N(C)C)C(=O)c1cc2c(cc1N(N(C)C)C3=O)SC(NN(C)C)=NS2(=O)=O", "GI50": "> 10 µM (inactive)"}

Q: What value of GI50 has been reported for the following compound? COc1ccc(C2Oc3c(OC)cc(CCCO)cc3C2CO)cc1OC (stereo unspecified)
Result: > 100 µM (inactive)

Q: Please do the same for CC1=C2CC(C)(C)CC(=O)C2(C)CCC1=O (stereo unspecified) as well.
Result: > 100 µM (inactive)

Q: Another compound: "CC(=N\N)/C(C)=N/N=C(C)/C(C)=N/N"
Result: > 100 µM (inactive)

---

tested on: SF-295; experiment: NCI tumour cell line growth inhibition, 48 h
Active and inactive are the calls of the source. Cut-off read from the data, not from the text of the source: active = GI50 up to about 1.1 µM and inactive = higher.
measuredProperty: GI50

Consider the reported GI50 for these molecules:
{"molecule": "CC(=N\\N)/C(C)=N/N=C(C)/C(C)=N/N", "GI50": "> 100 µM (inactive)"}
{"molecule": "CN(OC(=O)CC(=O)c1ccccc1)C(=O)Cc1ccccc1", "GI50": "> 100 µM (inactive)"}
{"molecule": "Cc1cc(NC2=NCCO2)c2c(c1C)CCCC2", "GI50": "12.6 µM (inactive)"}
{"molecule": "CCc1ccccc1NC(=O)C(=O)C(C(=O)c1ccc(OC)cc1)c1ccc(OC)cc1 (stereo unspecified)", "GI50": "> 100 µM (inactive)"}

Q: Need GI50 of COC(=O)C1=C2CCC(=O)[C@@]2(C)C(OC(C)=O)C=CC1 (stereo partly specified) , thanks.
Result: 37.1 µM (inactive)

Q: What about CC1C=CC(=O)C(n2cc(F)c(=O)[nH]c2=O)O1 (stereo unspecified) ?
Result: > 10 µM (inactive)

---

tested on: SNB-19; test: NCI tumour cell line growth inhibition, 48 h
Activity calls are given as the source filed them. Cut-off read from the data, not from the text of the source: active = GI50 up to about 1.1 µM and inactive = higher.
A collection of compounds and their measured GI50

Example cases with answers are listed next.
{"compound": "COc1nc2ncc([C@@H](O)[C@H](O)CO)nc2c(=O)[nH]1", "GI50": "> 100 µM (inactive)"}
{"compound": "COc1cc2oc(=O)cc(C)c2c(OC)c1OC(C)=O", "GI50": "> 100 µM (inactive)"}
{"compound": "CCOC(=O)C1(C(=O)OCC)[C@H](c2ccccc2)C2=NO[C@@H]3CCC[C@H]1[C@H]23", "GI50": "> 100 µM (inactive)"}

Q: GET /values?readout=GI50&item= "O=c1[nH]cc(NCCCl)c(=O)[nH]1"
Result: > 100 µM (inactive)

Q: // query: COc1ccc(NC2Oc3cc4c(cc3C(c3cccc(OC)c3OC)C2C)OCO4)cc1 (stereo unspecified)
Result: 53.3 µM (inactive)

Q: Follow-up entry: "COc1cc(/C=N/n2c(-c3ccccc3)n[nH]c2=O)cc(OC)c1OC"
Result: 6.37 µM (inactive)

Q: Similarly, COC(=O)/C(C#N)=C1\CCC(O)N1C (stereo unspecified) ?
Result: > 100 µM (inactive)

Q: Please give the result for "CN(C)c1ccc(/C=C2\Cc3ccccc3C2=O)cc1Br" too.
Result: > 100 µM (inactive)

Q: Here is the next compound: "Sc1nn2c(Cc3ccccc3)nnc2s1"
Result: > 100 µM (inactive)

Q: Same lookup for "Cn1c(=O)c2c(nc(N/N=C3/SCC(=O)N3Cc3ccccc3)n2C)n(C)c1=O" , please.
Result: > 100 µM (inactive)

Q: Same thing, different compound: "NC1=NS(=O)(=O)Nc2nc(-c3ccc(Cl)cc3)c(-c3ccc(Cl)cc3)nc21"
Result: > 100 µM (inactive)

---

test system: BT-549; assay: NCI tumour cell line growth inhibition, 48 h
The source made the active and inactive calls. Rule as the data show it: active = GI50 up to about 1.1 µM and inactive = higher.
measuredProperty: GI50

{"molecule": "CC12CC(c3ccccc3O1)C(C(=O)Nc1nccs1)C(=O)N2 (stereo not given)", "result": "> 100 µM (inactive)"}

Now examine the next entry.
Q: So what GI50 did "O=C1NC(=O)/C(=C/c2ccc(S(=O)(=O)N/N=C/c3ccccc3)cc2)N1" get with BT-549?
Result: > 100 µM (inactive)

---

Parameter GI50: see the listing below.
system: HL-60; assay: NCI tumour cell line growth inhibition, 48 h
Activity calls are given as the source filed them. No stated cut-off is given here; in the data, active = GI50 up to about 1.1 µM and inactive = higher.

Reference set, count: 10
{"compound": "CC(=O)Oc1c2oc3ccc(Cl)cc3c(=O)c2c(O)c2ccsc12", "measuredProperty": "GI50", "result": "> 100 µM (inactive)"}
{"compound": "CCOC(=O)CC(c1ccccc1)C(C)(C(=O)OCC)C(=O)OCC (stereo not given)", "measuredProperty": "GI50", "result": "> 100 µM (inactive)"}
{"compound": "CC1CN=C(N(C(=O)Nc2ccc(Cl)c(Cl)c2)c2ccccc2)S1 (stereo not given)", "measuredProperty": "GI50", "result": "> 10 µM (inactive)"}
{"compound": "COc1ccccc1NCC(=O)Nn1c(C)nc2ccc(S(=O)(=O)Nc3ccccc3OC)cc2c1=O", "measuredProperty": "GI50", "result": "47.1 µM (inactive)"}
{"compound": "N#Cc1nc(/C=C/c2cccs2)oc1N", "measuredProperty": "GI50", "result": "12.6 µM (inactive)"}
{"compound": "COc1ccc2nc3cc(Cl)ccc3c(NCCCNCc3cc(OC)c(OC)c(OC)c3)c2c1", "measuredProperty": "GI50", "result": "0.895 µM (active)"}
{"compound": "Cc1ccc(S(=O)(=O)N2CCC3(C(/C=C/c4ccccc4)=Nc4ccccc43)C2c2ccccc2)cc1 (stereo not given)", "measuredProperty": "GI50", "result": "> 100 µM (inactive)"}
{"compound": "CC(=O)O[C@H]1[C@H](OC(=O)CC(C)(O)CC(=O)O)C[C@]2(C)C3=C(CCC2C1(C)C)[C@]1(C)CC[C@H]([C@H]2CC[C@H](C(C)(C)O)OC2O)[C@@]1(C)[C@@H](O)C3 (stereo not given in full)", "measuredProperty": "GI50", "result": "17.7 µM (inactive)"}
{"compound": "COc1ccccc1C1C(C(=O)O)=C(CO)Oc2cc3c(cc21)OCO3 (stereo not given)", "measuredProperty": "GI50", "result": "> 100 µM (inactive)"}
{"compound": "O=P(O)(OCC(O)O)OCC(O)O", "measuredProperty": "GI50", "result": "> 100 µM (inactive)"}

Q: I am curious: what GI50 value has been reported for "O=C(Cc1csc2[n+]1C(=O)/C(=C/c1ccc(Cl)cc1)S2)Nc1ccccc1" ?
Result: 20.2 µM (inactive)

Q: Next entry: COc1cc(/C=C2\CCC(C)C3=C2N=c2s/c(=C/c4ccc(Cl)cc4)c(=O)n2C3c2cc(OC)c(OC)c(OC)c2)cc(OC)c1OC (stereo not given)
Result: > 100 µM (inactive)

Q: Lookup "CC1=C(C(=O)Nc2c(C)cccc2C)C(c2ccc3c(c2)OCO3)C(C(=O)Nc2c(C)cccc2C)=C(C)N1"
Result: 16.3 µM (inactive)

Q: Moving on to CCCCSCC(NC(=O)/C=C/c1c(C)[nH]c(=O)[nH]c1=O)C(=O)OC (stereo not given)
Result: 76.6 µM (inactive)

Q: Follow-up item: CN(C)CCOc1ccc2[nH]c(C(=O)N3CC(CCl)c4c3cc(N)c3ccccc43)cc2c1 (stereo not given)
Result: < 0.01 µM (active)

Q: // next record "Sc1nn2c(Cc3ccccc3)nnc2s1"
Result: > 100 µM (inactive)
